# measured-on: GPIIb/IIIa (Homo sapiens, UniProt P05106+P08514)
# Sequence (P08514 32-887 limits assumed): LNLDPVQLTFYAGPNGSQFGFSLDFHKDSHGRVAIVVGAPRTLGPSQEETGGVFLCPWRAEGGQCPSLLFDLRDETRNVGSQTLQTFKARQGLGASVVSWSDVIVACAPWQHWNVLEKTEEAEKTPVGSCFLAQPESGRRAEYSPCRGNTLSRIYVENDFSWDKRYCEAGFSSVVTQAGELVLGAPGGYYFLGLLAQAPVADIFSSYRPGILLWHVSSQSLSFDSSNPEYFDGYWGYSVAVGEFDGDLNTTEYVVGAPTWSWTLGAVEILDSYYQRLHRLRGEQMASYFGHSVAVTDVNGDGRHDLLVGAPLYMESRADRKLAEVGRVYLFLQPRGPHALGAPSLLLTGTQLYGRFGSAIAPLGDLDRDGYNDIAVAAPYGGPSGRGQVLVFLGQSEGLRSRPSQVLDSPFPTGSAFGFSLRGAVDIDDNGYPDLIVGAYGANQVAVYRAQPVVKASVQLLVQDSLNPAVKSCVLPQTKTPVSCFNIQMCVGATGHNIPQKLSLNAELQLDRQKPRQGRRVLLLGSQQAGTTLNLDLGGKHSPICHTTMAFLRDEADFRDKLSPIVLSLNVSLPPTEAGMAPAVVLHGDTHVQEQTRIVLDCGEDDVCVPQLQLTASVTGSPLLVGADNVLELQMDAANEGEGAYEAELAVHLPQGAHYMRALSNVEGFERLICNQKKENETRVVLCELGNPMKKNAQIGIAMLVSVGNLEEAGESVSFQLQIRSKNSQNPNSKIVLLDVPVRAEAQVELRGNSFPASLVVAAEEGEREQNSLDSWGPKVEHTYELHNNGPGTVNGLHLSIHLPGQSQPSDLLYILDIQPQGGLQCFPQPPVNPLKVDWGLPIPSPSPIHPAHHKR
# Sequence (P08514 891-1039 partner limits assumed): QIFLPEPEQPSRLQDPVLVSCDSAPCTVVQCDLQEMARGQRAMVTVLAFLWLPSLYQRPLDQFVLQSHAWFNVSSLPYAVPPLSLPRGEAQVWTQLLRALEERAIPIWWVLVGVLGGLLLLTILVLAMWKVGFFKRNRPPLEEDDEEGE
# Sequence (P05106 27-788): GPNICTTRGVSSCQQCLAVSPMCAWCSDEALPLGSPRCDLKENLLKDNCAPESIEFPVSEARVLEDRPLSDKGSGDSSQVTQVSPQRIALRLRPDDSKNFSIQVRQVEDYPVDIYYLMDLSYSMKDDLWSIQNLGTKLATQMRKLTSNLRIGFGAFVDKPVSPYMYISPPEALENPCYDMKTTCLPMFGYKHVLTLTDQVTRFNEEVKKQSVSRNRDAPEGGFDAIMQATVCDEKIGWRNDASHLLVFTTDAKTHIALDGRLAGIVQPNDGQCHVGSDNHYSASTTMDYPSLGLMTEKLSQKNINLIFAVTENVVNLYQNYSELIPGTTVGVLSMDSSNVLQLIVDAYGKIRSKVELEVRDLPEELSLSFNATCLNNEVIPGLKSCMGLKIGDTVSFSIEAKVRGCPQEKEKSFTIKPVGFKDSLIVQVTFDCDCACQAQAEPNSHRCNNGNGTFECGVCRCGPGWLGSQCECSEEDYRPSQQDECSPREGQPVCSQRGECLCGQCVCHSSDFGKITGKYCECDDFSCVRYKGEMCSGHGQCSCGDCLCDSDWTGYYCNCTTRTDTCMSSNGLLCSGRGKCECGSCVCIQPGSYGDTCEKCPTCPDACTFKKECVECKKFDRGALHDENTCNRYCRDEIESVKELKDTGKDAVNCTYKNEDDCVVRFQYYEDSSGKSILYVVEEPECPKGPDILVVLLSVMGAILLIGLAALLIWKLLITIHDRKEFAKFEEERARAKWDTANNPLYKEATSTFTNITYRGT
# test-description: In vitro solid phase purified glycoprotein IIb/IIIa binding assay (biotinylated fibrinogen)
# measurement-conditions: RGD-affinity purified GPIIb/IIIa, biotinylated fibrinogen; read-out: GPIIb/IIIa Binding IC50
# From the text: In vitro Solid Phase Purified αvβ3 Binding Assay The vitronectin/αvβ3 binding assay methods were derived from Mehta et al. (Biochem J. 1998, 330, 861). […] Plates were read at 490 nm on a Molecular Devices (Sunnyvale, Calif.) microplate reader. […] The absorbance was read at 490 nm.
measure: IC50 (nM)

| item-smiles | IC50 [nM] |
| --- | --- |
| Cc1cc(C)c(S(=O)(=O)N[C@@H](Cc2nc3ccc(/C=C/CNC4=NCCN4)cc3c(=O)[nH]2)C(=O)O)c(C)c1 | 78 |
| Cc1c(C)c(C)c(S(=O)(=O)N[C@@H](Cc2nc3ccc(/C=C/CNC4=NCCCCC4)cc3c(=O)[nH]2)C(=O)O)c(C)c1C | 1300 |
| Cc1noc(C)c1S(=O)(=O)N[C@@H](Cc1nc2ccc(/C=C/CNc3ccccn3)cc2c(=O)[nH]1)C(=O)O | 700 |

[P] O=C(O)[C@H](Cc1nc2ccc(/C=C/CNC3=NCCN3)cc2c(=O)[nH]1)NS(=O)(=O)c1cccc2cccnc12
[Q] O=C(N[C@@H](Cc1nc2ccc(-c3cccc(NC4=NCCN4)c3)cc2c(=O)[nH]1)C(=O)O)OCc1ccccc1
Given the listed items, does P or Q have the lesser reported IC50? # respond with the chosen item's label Q
(Q: 88 nM, P: 320 nM)

[A] COc1ccc(S(=O)(=O)N[C@@H](Cc2nc3ccc(/C=C/CNC4=NCCCCCC4)cc3c(=O)[nH]2)C(=O)O)cc1OC
[B] O=C(O)[C@H](Cc1nc2ccc(/C=C/CNc3ccccn3)cc2c(=O)[nH]1)NS(=O)(=O)c1ccc2ccccc2c1
[C] Cc1c(C)c(C)c(S(=O)(=O)N[C@@H](Cc2nc3ccc(/C=C/CNC(=O)NC(C)C)cc3c(=O)[nH]2)C(=O)O)c(C)c1C
Write the entries in order, lowest recorded IC50 first. Give me the labels in the order the question wants. A, B, C
(A: 230 nM, B: 1400 nM, C: 2500 nM)

[A] COc1ccc(S(=O)(=O)N[C@@H](Cc2nc3ccc(/C=C/CNc4ccccn4)cc3c(=O)[nH]2)C(=O)O)cc1OC
[B] O=C(O)[C@H](Cc1nc2ccc(/C=C/CNC3=NCCN3)cc2c(=O)[nH]1)NS(=O)(=O)c1c(Cl)cc(Cl)cc1Cl
# compare IC50 for A vs B ; return the one with the smaller value Pick one and reply with its label. A
(A: 1100 nM, B: 1600 nM)

###

# measured-on: Human αvβ3 (Homo sapiens, UniProt P05106+P06756)
# Construct: purchased Chemicon International Inc., Temecula, Calif
# Sequence (P06756 31-889 limits assumed, one chain of several): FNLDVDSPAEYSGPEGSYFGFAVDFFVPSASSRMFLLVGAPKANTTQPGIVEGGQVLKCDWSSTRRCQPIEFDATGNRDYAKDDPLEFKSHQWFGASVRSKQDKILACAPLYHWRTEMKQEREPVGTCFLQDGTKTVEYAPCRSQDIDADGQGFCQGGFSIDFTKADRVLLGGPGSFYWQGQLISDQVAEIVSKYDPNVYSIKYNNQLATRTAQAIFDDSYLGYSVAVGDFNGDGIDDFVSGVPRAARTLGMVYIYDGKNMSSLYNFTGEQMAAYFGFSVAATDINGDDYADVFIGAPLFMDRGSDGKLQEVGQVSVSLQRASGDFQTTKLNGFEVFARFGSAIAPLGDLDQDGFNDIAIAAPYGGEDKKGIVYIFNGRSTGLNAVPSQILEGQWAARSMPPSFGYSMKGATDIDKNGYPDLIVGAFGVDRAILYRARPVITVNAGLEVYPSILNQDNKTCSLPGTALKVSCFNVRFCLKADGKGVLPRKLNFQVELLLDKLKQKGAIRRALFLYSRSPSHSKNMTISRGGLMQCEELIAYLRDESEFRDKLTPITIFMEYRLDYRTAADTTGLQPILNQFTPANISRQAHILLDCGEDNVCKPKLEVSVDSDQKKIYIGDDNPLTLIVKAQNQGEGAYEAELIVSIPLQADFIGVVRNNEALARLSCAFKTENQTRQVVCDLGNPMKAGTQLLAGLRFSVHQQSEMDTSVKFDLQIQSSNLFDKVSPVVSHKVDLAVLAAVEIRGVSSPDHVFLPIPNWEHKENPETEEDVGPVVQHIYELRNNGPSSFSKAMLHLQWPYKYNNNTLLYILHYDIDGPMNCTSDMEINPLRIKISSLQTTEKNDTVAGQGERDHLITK
# Sequence (P06756 891-1048 partner limits assumed, one chain of several): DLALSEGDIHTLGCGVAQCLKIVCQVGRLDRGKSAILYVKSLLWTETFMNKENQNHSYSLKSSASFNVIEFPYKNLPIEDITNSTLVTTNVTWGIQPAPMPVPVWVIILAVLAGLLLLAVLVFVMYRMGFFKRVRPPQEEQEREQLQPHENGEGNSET
# test-description: In vitro solid phase purified αvβ3 binding assay (vitronectin/αvβ3)
# measurement-conditions: isolated human αvβ3, 5 nM vitronectin; read-out: αvβ3 Binding IC50
Measured IC50 values are reported for all entries that follow.

Requested read-out: IC50. Entry: O=C(N[C@@H](Cc1nc2ccc(/C=C/CNC3=NCCN3)cc2c(=O)[nH]1)C(=O)O)OCc1ccccc1 55 nM

Which measured IC50 value corresponds to O=C(N[C@@H](Cc1nc2ccc(-c3cccc(NC4=NCCN4)c3)cc2c(=O)[nH]1)C(=O)O)OCc1ccccc1 ? > 5000 nM

Which measured IC50 value corresponds to COc1ccc(S(=O)(=O)N[C@@H](Cc2nc3ccc(/C=C/CNC(=O)NCc4ccccc4)cc3c(=O)[nH]2)C(=O)O)cc1 ? 43 nM

Which IC50 is listed for O=C(N[C@@H](Cc1nc2ccc(C#CCNC3=NCCN3)cc2c(=O)[nH]1)C(=O)O)OCc1ccccc1 ? > 5000 nM

What value of IC50 has been recorded for this entry: COc1ccc(S(=O)(=O)N[C@@H](Cc2nc3ccc(/C=C/CNC4=NCCCC4)cc3c(=O)[nH]2)C(=O)O)cc1OC 58 nM
